The values you see were collected from ChEMBL document CHEMBL1156829.

Let's look at some molecules and their measured CC50.
Test: NOVARTIS: Cytotoxicity against human hepatocellular carcinoma cell line (Huh7)
Type: toxicity, cell-based, Huh-7
Conditions: Huh7 cells (hepatocellular carcinoma cell line)
recorded metric: CC50

>>> df
                                   molecule  recorded_metric  test_result
0  Cc1c2c(cc3c1ccc1ccccc13)C[N+]1(CCCCC1)C2             CC50     > 100 µM
1                     CSc1nnc(CN2CCSCC2)n1C             CC50      > 10 µM
2  NC(=O)/C(=C\c1cccc2ccccc12)NC(=O)c1ccccc1             CC50      > 10 µM
3          CN(C)c1ccc(C2N(C)c3ccccc3N2C)cc1             CC50     > 100 µM
4  O=C1Nc2ccc(S(=O)(=O)Nc3ccc(NS(=O)(=O)c4ccc5c6c(cccc46)C(=O)N5)cc3)c3cccc1c23             CC50    > 8.12 µM
5  O=C(NCCCCCCCCCCNC(=O)Nc1ccc(C2=NCCCN2)cc1)Nc1ccc(C2=NCCCN2)cc1             CC50      > 10 µM
6  C=CCOc1cccc(C(Nc2cccc(C)n2)c2ccc3cccnc3c2O)c1 (stereo not given)             CC50    > 69.4 µM
7   C=CCSc1nc(Sc2ccc(Cl)cc2)c2sc3ccccc3c2n1             CC50      > 10 µM
8  O=C(Cc1cccs1)NC1CCN(CC(O)CN(Cc2ccccc2)S(=O)(=O)c2ccccc2)C1 (stereo not given)             CC50      > 10 µM
9  Brc1ccc(-c2cn3c([n+]2Cc2ccccc2)SCCC3)cc1             CC50      53.3 µM

----------
Test: NOVARTIS: Cytotoxicity against human hepatocellular carcinoma cell line (Huh7)
Assay type: toxicity, cell-based, Huh-7
Details: Huh7 cells (hepatocellular carcinoma cell line)
recorded metric: CC50

>>> df
                                    compound  test_result
 0  N=c1n(Cc2ccccc2)c2ccccc2n1CC(O)c1ccc(Cl)cc1 (configuration not stated)      11.1 µM
 1  Cc1c2cnn(CC(=O)O)c(=O)c2c(C)n1Cc1cccc(Cl)c1     > 100 µM
 2           O=c1c2c([nH]c3cc(Cl)ccc13)CCCC2     > 100 µM
 3  CCn1c(C)cc(/C=C2\C(=O)NC(=O)N(c3cccc(Cl)c3)C2=O)c1C      > 10 µM
 4  CC1CC(=O)NN=C1c1ccc(NC(=O)c2ccccc2)cc1 (configuration not stated)      > 10 µM
 5  O=C(Nc1ccccc1[N+](=O)[O-])C1CC1(c1ccccc1)c1ccccc1 (configuration not stated)     > 100 µM
 6  CC(/C=C/C(=O)NO)=C\[C@@H](C)C(=O)c1ccc(N(C)C)cc1      1.59 µM
 7  COc1ccc(N2C(=O)/C(=C3/C(=O)Nc4ccc(F)cc43)SC2=S)c(OC)c1      > 10 µM
 8  COCCNC(=S)N1CCN(S(=O)(=O)c2ccc([N+](=O)[O-])cc2)CC1     > 100 µM
 9  CC(C)(C)CC(C)(C)Nc1c(-c2ccccc2OC(=O)c2cccc(Cl)c2)nc2ccccn12      > 10 µM
10                 CNc1nc(Cl)nc(Nc2ccccc2)n1      > 10 µM
11  CCC(CO)NCC(O)Cn1c2ccc(Cl)cc2c2cc(Cl)ccc21 (configuration not stated)      20.1 µM
12  CC1CCCN(C(=O)C2CCN(Cc3ccccn3)CC2)C1 (configuration not stated)     > 100 µM
13           Cc1cccc(N2C(N)=NC(N)=NC2(C)C)c1      2.98 µM
14    CCOC(=O)c1cnc2ccc(OCC)cc2c1NCCCN(CC)CC      70.1 µM
15  CCOC(=O)C(=O)N1c2ccc(C)cc2-c2c(ssc2=S)C1(C)C     > 100 µM
16  O=C(NCc1cccnc1)[C@@H]1C[C@H](NC2CCN(CCc3ccccc3)CC2)CN1Cc1ccc(Cl)cc1      18.5 µM
17  Cc1cc2c(cc1C)NC(c1ccc(Cl)c(F)c1)C1=C(CC(C)(C)CC1=O)N2 (configuration not stated)      64.5 µM
18  COc1ccc(-c2ccc(C=C3C(=O)NC(=S)NC3=O)o2)cc1Cl      > 10 µM
19  CCOc1ccc2cc(C#N)c(SCC(=O)N3CC(=O)Nc4ccccc43)nc2c1      > 10 µM
20  CN(CCCNc1ccnc2cc(Cl)ccc12)C(=O)COc1ccccc1      > 10 µM
21  Cc1cccc(OC(C)C(=O)N2CCc3ccccc32)c1 (configuration not stated)     > 100 µM
22  CCOC(=O)c1c(CN2CCN(CC#N)CC2)n(Cc2ccccc2)c2cc(Br)c(O)cc12     > 100 µM
23  C[n+]1ccn(-c2ccc(C(=O)c3ccc(-n4cc[n+](C)c4)cc3)cc2)c1      > 10 µM
24  COc1ccccc1NC(=O)N1CCN(C(=O)c2nc(-c3ccccc3)nc(C)c2C(=O)OC(C)C)CC1C (configuration not stated)      > 10 µM
25      S=C(NN=CC=NNC(=S)Nc1ccccc1)Nc1ccccc1        15 µM
26  COc1cccc(CNC(=O)Cn2ncc3c(=O)oc4ccc(C)cc4c32)c1      > 10 µM
27  CCOc1ccc(Nc2nc(NCc3ccccc3)c3ccccc3n2)cc1      5.67 µM
28  OCCN(CCO)CC(O)Cn1c2ccc(Br)cc2c2cc(Br)ccc21 (configuration not stated)      27.3 µM
29  Cc1ccc(-c2nnc(Nc3ccc(F)cc3)c3ccccc23)cc1S(=O)(=O)NCC1CCCO1 (configuration not stated)     > 100 µM
30  O=C1CN(C(=O)CCC2CCCCC2)C(c2ccc(F)cc2)c2cc(F)ccc2N1 (configuration not stated)      64.4 µM
31  Cc1ccc(NC2=C(N3CCCCC3)C(=O)c3ccccc3C2=O)cc1      18.5 µM
32  COC(=O)[C@]1(C)CC[C@]2(C)CC[C@]3(C)C4=CC=C5C(=CC(=O)C(O)=C5C)[C@]4(C)CC[C@@]3(C)[C@@H]2C1    > 6.25 µM
33  COc1ccc(C2CC(c3ccccc3Cl)n3ncnc3N2C(=O)C2CC2)cc1 (configuration not stated)      > 10 µM
34  CCCn1c(=N)c(C(=O)NC2CCCCC2)cc2c(=O)n3cccc(C)c3nc21     > 100 µM
35        CCN(CC)S(=O)(=O)c1cc(C(=O)O)ccc1Cl      > 10 µM
36  CCN1CC=C2C(C#N)=C(N)C(C#N)(C#N)C(c3ccc(C)s3)C2C1 (configuration not stated)      > 10 µM
37  CCOC(=O)N1CCN(C(=O)C(NC(=O)C2CCC(C)CC2)C(C)C)CC1 (configuration not stated)      > 10 µM
38  CC(C)CNC(=O)c1cc(NC(=O)c2cccs2)ccc1N1CCc2ccccc2C1     0.893 µM
39  CC(C)CNC(=O)c1cnc(NCCCN2CCCC2)nc1NC1CCCC1      > 10 µM
40  CN(CCCNc1ccnc2cc(Cl)ccc12)S(=O)(=O)c1ccc2ccccc2c1    > 5.54 µM
41          CCN(CC)c1scc(-c2ccc(Br)cc2)[s+]1      > 10 µM

----------
System: Plasmodium falciparum
Assay: NOVARTIS: Inhibition of Plasmodium falciparum W2 (drug-resistant) proliferation in erythrocyte-based infection assay
Type: functional, organism-based
Details: Plasmodium falciparum, W2; read-out: EC50
pEC50: −log10 of the molar value.
// map pEC50 to label using low = under 6, moderate = from 6 up to 7, high = 7 and over

>>> print(df.to_string())
                                    compound     group
 0  CN1CCCC1CCNc1ncc(C(=O)NCc2ccccc2)c(NC2CCCC2)n1 (configuration not stated)       low
 1  CC(C)(C)CC(C)(C)Nc1c(-c2ccccc2OC(=O)c2ccc(Cl)cc2Cl)nc2ccccn12      high
 2  CCSCCOC(=O)C1=C(C)NC2=C(C(=O)CCC2)C1c1ccc(OC)c(Br)c1 (configuration not stated)  moderate
 3  O=C1[C@@H]2CCCN2C(=O)C(c2ccc(Oc3ccccc3)cc2)N1CCc1ccccn1 (some centres not stated)      high
 4            Brc1ccc2[nH]c3nc4ccccc4nc3c2c1       low
 5  CC(CNC(=O)c1cn(C2CCCCC2)cc(C(=O)NC(C)(C)C)c1=O)c1ccccc1 (configuration not stated)      high
 6  CCn1c(-c2ccc(O)cc2)nn(CN2CCN(Cc3ccc4c(c3)OCO4)CC2)c1=S       low
 7  CCN1CCN(c2cc(C)c3cc(NC(=O)c4cc(=O)c5ccccc5o4)ccc3n2)CC1  moderate
 8            CCOc1ccc(C2N(C)c3ccccc3N2C)cc1  moderate
 9          Cc1cc(Nc2ccc(N(C)C)cc2)n2ncnc2n1       low
10  Cc1ccccc1OCC(O)Cn1c(NC2CCCCC2)nc2c1c(=O)[nH]c(=O)n2C (configuration not stated)  moderate
11  Cc1ccn2c(NC(C)(C)CC(C)(C)C)c(-c3ccccc3OC(=O)C3C[C@H]3c3ccccc3)nc2c1 (some centres not stated)      high
12  COc1ccc(CN(Cc2cc3cccc(C)c3[nH]c2=O)C(=S)NC2CCCCC2)cc1  moderate
13  Oc1ccc(-c2ccc3c(c2)OCO3)cc1CNCC1(N2CCCCC2)CCCCC1      high
14  CCOC(=O)C1=C(CC)NC2=C(C(=O)CC(C)(C)C2)C1c1ccc(Br)cc1 (configuration not stated)      high
15     NC(=NCc1ccccc1)NC(=O)c1nc(Cl)c(N)nc1N       low
16      C[n+]1c(/C=C\c2ccc(F)cc2)ccc2ccccc21      high
17  CC(C)N1CC[C@@H](N2CCN(c3cccc(C(F)(F)F)c3)CC2)[C@@H](CCC(=O)N(C)C2CCN(C)CC2)C1  moderate
18  CCN(CC)CCN(Cc1cc2cc(OC)ccc2[nH]c1=O)C(=S)Nc1ccc(F)cc1       low
19  CNC(=O)c1nn(C)c2c1CC(NCC1CCCCC1)CC2 (configuration not stated)       low
20  CCOC(=O)C1=C(C)N=c2sc(=Cc3ccccc3OCc3ccccc3)c(=O)n2C1c1ccccc1OC(C)C (configuration not stated)       low
21  COc1ccc(C2=C(c3ccc(OC)cc3)C3(c4ccccc4)C(=O)C2(c2ccccc2)C2C(=O)N(c4ccc(F)cc4)C(=O)C23)cc1 (configuration not stated)       low
22         FC(F)(F)c1cccc(Nc2nnnc3ccccc23)c1  moderate
23                 COc1nncc(-c2cnnc(SC)n2)n1  moderate
24  CC1=C(C(=O)OC(C)C)C(c2ccccc2F)C2=C(CC(c3ccc(Cl)cc3)CC2=O)N1 (configuration not stated)      high
25  CCCOC(=O)C1=C(C)NC2=C(C(=O)CC(c3ccc(OC)c(OC)c3)C2)C1c1ccccc1Br (configuration not stated)      high
26  CCCc1c(C(=O)OCC)c2cc(O)ccc2n1-c1ccc(OC)cc1  moderate
27                 CCc1nc(N)nc(N)c1-c1ccccc1       low
28  COC(=O)c1ccc(N(C(=O)Cc2c[nH]c3ccccc23)C(C(=O)NC2CCCCC2)c2ccccc2F)cc1 (configuration not stated)  moderate
29  Cc1cccc(NC(=O)c2ccc(NCCCC3CCCCCC3)c([N+](=O)[O-])c2)c1  moderate
